Each recorded value in this set is attributed to paper PMC3217850.

Tested on: SH-SY5Y APPwt cells
Assay: Aβ40 secretion from SH-SY5Y APPwt cells, ELISA of culture medium
Assay type: cell-based, human
Conditions: Homo sapiens; BACE inhibitor alone, SH-SY5Y APPwt, 24 h

| substanceSmiles | unitDescriptor | IC50 |
| --- | --- | --- |
| CCc1cn2c3c(cc(C(=O)N[C@@H](Cc4ccccc4)[C@H](O)CNC4CC4)cc13)N(C)S(=O)(=O)CC2 | nM | 7 |
